assay protocol: CCTE_Padilla_ZF_Score.Tail: CCTE's 144 Hour Post-fertilization zebrafish Assay Score for Tail Malformation, Padilla Lab (AID 2284414)
Calls of active or inactive are those of the source. Rule for the calls: active = hit-call score of the fitted dose curve at least 0.9, where 1 is the maximum; inactive = score below 0.9.
measurement type: outcome

compound string | observed measurement
FC(F)(F)C(F)(F)C(F)(F)C(F)(F)C(F)(F)C(F)(F)C(F)(F)I | inactive
FC(F)(F)C(F)(F)C(F)(F)C(F)(F)C(F)(F)C(F)(F)C(F)(F)Br | inactive
O=C(O)C(F)(F)C(F)(F)OC(F)(F)F | inactive
C=CC(F)(F)C(F)(F)C(F)(F)C(F)(F)C(F)(F)C(F)(F)C(F)(F)C(F)(F)F | inactive
FC(F)(F)C(F)(F)C(F)(F)C(F)(F)CCI | inactive
OCC(F)(F)C(F)(F)C(F)(F)F | inactive
